Provenance of the data: PubChem BioAssay (NCI)

Assay: NCI Yeast Anticancer Drug Screen. Data for the cln2 rad14 strain (AID 165);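 note: 0% = growth equal to vehicle treated cultures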
Details: S. cerevisiae cln2 rad14 strain, at 50.0 µM, stronger effect = higher value
The panel holds about 79,000 compounds, 15% with a hit somewhere; the sample as a whole holds those more often.
resultType: growth inhibition (%)
Response body: numeric value in %, unit text excluded.

Name the recorded growth inhibition of the compound listed here: `O=Nc1c(-c2c[nH]c3ccccc23)[nH]c2ccccc12`
16.9

###

Assay: NCI Yeast Anticancer Drug Screen. Data for the bub3 strain (AID 167)
Details: S. cerevisiae bub3 mutant strain, at 5.0 µM (retest, dose inferred, filed as 0.5)
The panel holds about 79,000 compounds, 15% with a hit somewhere; the sample as a whole holds those more often. Active and inactive are the calls of the source. No stated cut-off is given here; in the data, active means growth inhibition above about 70%; inactive means the rest.
Allowed answers: Y (active), N (inactive)

The following molecules have reported results that may help.
molecule=CCOC(=O)C(Cc1cn(S(=O)(=O)c2ccccc2)c2ccccc12)(NC(C)=O)C(=O)OCC labelvalue=N
molecule=O=C(Nc1cccc(Cl)c1)Oc1c(Br)cc(Br)cc1Br labelvalue=N
molecule="N#CC1CCCC(Cc2ccccc2)(c2ccccc2)C1=O (stereo not given)" labelvalue=N
molecule="CC1CN(CCCN2c3ccccc3Sc3ccc(Cl)cc32)C(C)(C)C1 (stereo not given)" labelvalue=N

Consider the record given below.
Status in this test for `COC(=O)c1ccc(CCc2cc(O)ccc2O)cc1` ?
N
